Ref: patent US10370360B2

- studySystem: DDR2 (Homo sapiens (Human))
- Sequence (Q16832 22-855): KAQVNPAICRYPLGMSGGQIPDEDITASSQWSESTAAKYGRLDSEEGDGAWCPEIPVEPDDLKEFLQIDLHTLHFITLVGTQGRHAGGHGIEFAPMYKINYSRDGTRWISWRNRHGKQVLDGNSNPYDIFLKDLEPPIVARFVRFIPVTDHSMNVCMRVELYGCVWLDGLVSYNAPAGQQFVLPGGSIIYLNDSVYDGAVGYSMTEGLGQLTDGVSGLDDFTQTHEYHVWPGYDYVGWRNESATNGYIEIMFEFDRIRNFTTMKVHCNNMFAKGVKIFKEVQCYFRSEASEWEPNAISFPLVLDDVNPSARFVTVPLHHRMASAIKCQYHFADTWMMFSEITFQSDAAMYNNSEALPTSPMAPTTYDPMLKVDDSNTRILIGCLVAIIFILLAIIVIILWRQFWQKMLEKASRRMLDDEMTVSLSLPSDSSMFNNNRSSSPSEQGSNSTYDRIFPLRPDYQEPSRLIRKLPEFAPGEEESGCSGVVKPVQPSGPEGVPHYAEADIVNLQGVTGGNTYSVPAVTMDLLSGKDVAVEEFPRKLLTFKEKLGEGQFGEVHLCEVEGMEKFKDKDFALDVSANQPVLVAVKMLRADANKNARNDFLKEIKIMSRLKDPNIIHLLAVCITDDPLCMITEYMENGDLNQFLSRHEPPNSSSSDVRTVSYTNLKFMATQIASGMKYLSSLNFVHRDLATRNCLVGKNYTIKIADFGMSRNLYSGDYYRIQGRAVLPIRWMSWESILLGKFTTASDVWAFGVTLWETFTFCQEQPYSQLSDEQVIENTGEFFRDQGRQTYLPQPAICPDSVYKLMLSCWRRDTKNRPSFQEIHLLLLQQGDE
- assayInfo: LanthaScreen Eu kinase activity assay, DDR2
- Format: biochemical
- measurementSetup: 100 nM ATP; cells without unit
pIC50: −log10 of the molar value.
observationType: pIC50

I = CC1CN(c2cncnc2)Cc2cc(C(=O)Nc3cc(CN4CCN(C5CCCCC5)CC4)cc(C(F)(F)F)c3)ccc21 (stereo not shown)
II = CCN1CCN(Cc2cc(NC(=O)c3ccc4c(c3)CN(c3cncnc3)CC4C)cc(C(F)(F)F)c2)CC1 (stereo not shown)
Which entry has a larger number for pIC50, I or II ? Lab note: record the label of whichever item you select.
II
(II: 6.28, I: 6.02)

A = CC1CN(c2cncnc2)Cc2cc(C(=O)Nc3cc(CN4CCN(C)CC4)c(Cl)c(C(F)(F)F)c3)ccc21 (stereo not shown)
B = CC1CN(c2cncnc2)Cc2cc(C(=O)Nc3cc(CCN4CCN(C)CC4)cc(C(F)(F)F)c3)ccc21 (stereo not shown)
For the two items A and B , which reports the higher pIC50 value? // return label of chosen record
B
(B: 6.35, A: 6.04)
